# Test System: Avi-KRAS G12D (1-169) GppNHp/RAF1 RBD-3xFLAG (52-151) (Homo sapiens, UniProt P01116, G12D)
# Construct: Avi-KRAS G12D (1-169)
# Sequence (P01116 1-169 isoform P01116-2 G12D): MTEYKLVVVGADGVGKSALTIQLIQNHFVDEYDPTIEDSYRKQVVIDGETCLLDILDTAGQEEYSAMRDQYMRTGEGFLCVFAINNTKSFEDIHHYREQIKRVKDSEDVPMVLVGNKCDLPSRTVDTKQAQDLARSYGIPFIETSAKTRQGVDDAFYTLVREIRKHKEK
# Experiment Summary: Raf1-KRAS G12D-GppNHP disruption HTRF assay (Biological Example 1)
# Format: binding
# Conditions: KRAS G12D-GppNHp/RAF1 RBD HTRF
pIC50: −log10 of the molar value.
Property Name: pIC50

Compound	pIC50
N#Cc1c(N)sc2c(F)ccc(-c3c(C(F)(F)F)cc4c(N5CC6C(=O)NC(=O)C6C5)nc(OC[C@@]56CCCN5C[C@H](F)C6)nc4c3F)c12 (some centres unmarked)	6.00 to 7.00
CC(=O)N1C[C@H](N(C)c2nc(OC[C@@]34CCCN3C[C@H](F)C4)nc3c(F)c(-c4ccc(F)c5sc(N)c(C#N)c45)c(C(F)(F)F)cc23)C[C@@H]1C	6.00 to 7.00

Query :: For [2H]C1([2H])O[C@@H]2C[C@H]1N(c1nc(OC[C@@]34CCCN3C[C@H](F)C4)nc3c(F)c(-c4ccc(F)c5sc(N)c(C#N)c45)c(C(F)(F)F)cc13)C2 , what is its reported pIC50?
Result :: 6.00 to 7.00

----------
Quick reference: IC50 of the listed items.
# Test System: Avi-KRAS G12D (1-169) GppNHp/RAF1 RBD-3xFLAG (52-151) (Homo sapiens, UniProt P01116, G12D)
# Construct: Avi-KRAS G12D (1-169)
# Experiment Summary: Raf1-KRAS G12D-GppNHP disruption HTRF assay (Biological Example 1)
# Format: binding
# Conditions: KRAS G12D, GppNHp-loaded; Table 11

Examples from the recorded data:
Compound	Test System	IC50
C[C@H]1CCN1c1nc(OC[C@@]23CCCN2C[C@H](F)C3)nc2c(F)c(-c3ccc(F)c4sc(N)c(C#N)c34)c(C(F)(F)F)cc12	Avi-KRAS G12D (1-169) GppNHp/RAF1 RBD-3xFLAG (52-151) (Homo sapiens, UniProt P01116, G12D)	0.1 to 1 µM
N#Cc1c(N)sc2c(F)ccc(-c3c(C(F)(F)F)cc4c(N5CC6CC(C5)O6)nc(OC[C@@]56CCCN5C[C@H](F)C6)nc4c3F)c12 (single isomer, unassigned) [Compound 276]	Avi-KRAS G12D (1-169) GppNHp/RAF1 RBD-3xFLAG (52-151) (Homo sapiens, UniProt P01116, G12D)	1 to 10 µM
CCN(CCCO)c1nc(OC[C@@]23CCCN2C[C@H](F)C3)nc2c(F)c(-c3ccc(F)c4sc(N)c(C#N)c34)c(C(F)(F)F)cc12 [Compound 75]	Avi-KRAS G12D (1-169) GppNHp/RAF1 RBD-3xFLAG (52-151) (Homo sapiens, UniProt P01116, G12D)	0.1 to 1 µM
CCN(CCO)c1nc(OC[C@@H]2CCCN2C)nc2c(F)c(-c3ccc(F)c4sc(N)c(C#N)c34)c(C(F)(F)F)cc12	Avi-KRAS G12D (1-169) GppNHp/RAF1 RBD-3xFLAG (52-151) (Homo sapiens, UniProt P01116, G12D)	0.1 to 1 µM
CC(=O)N1CC[C@@H](N(C)c2nc(OC[C@@]34CCCN3C[C@H](F)C4)nc3c(F)c(-c4ccc(F)c5sc(N)c(C#N)c45)c(C(F)(F)F)cc23)[C@H]1C (single isomer, unassigned) [Compound 192]	Avi-KRAS G12D (1-169) GppNHp/RAF1 RBD-3xFLAG (52-151) (Homo sapiens, UniProt P01116, G12D)	> 10 µM
CC(=O)N1C[C@@H](N(C)c2nc(OC[C@@]34CCCN3C[C@H](F)C4)nc3c(F)c(-c4ccc(F)c5sc(N)c(C#N)c45)c(C(F)(F)F)cc23)C[C@H]1C	Avi-KRAS G12D (1-169) GppNHp/RAF1 RBD-3xFLAG (52-151) (Homo sapiens, UniProt P01116, G12D)	0.1 to 1 µM
CN(CCO)c1nc(OC[C@@]23CCCN2C[C@H](F)C3)nc2c(F)c(-c3ccc(F)c4sc(N)c(C#N)c34)c(C(F)(F)F)cc12	Avi-KRAS G12D (1-169) GppNHp/RAF1 RBD-3xFLAG (52-151) (Homo sapiens, UniProt P01116, G12D)	< 0.1 µM
CN1CCN(c2nc(OC[C@@]34CCCN3C[C@H](F)C4)nc3c(F)c(-c4ccc(F)c5sc(N)c(C#N)c45)c(C(F)(F)F)cc23)CC1=O	Avi-KRAS G12D (1-169) GppNHp/RAF1 RBD-3xFLAG (52-151) (Homo sapiens, UniProt P01116, G12D)	0.1 to 1 µM
CO[C@@H]1C[C@@H](COc2nc(N(C)[C@H]3C[C@@H](O)C3)c3cc(C(F)(F)F)c(-c4ccc(F)c5sc(N)nc45)c(F)c3n2)N(C)C1 (atropisomer, axis not shown)	Avi-KRAS G12D (1-169) GppNHp/RAF1 RBD-3xFLAG (52-151) (Homo sapiens, UniProt P01116, G12D)	> 10 µM
CN(c1nc(OC[C@@]23CCCN2C[C@H](F)C3)nc2c(F)c(-c3ccc(F)c4sc(N)c(C#N)c34)c(C(F)(F)F)cc12)[C@@H]1C[C@H](O)[C@H]1CO	Avi-KRAS G12D (1-169) GppNHp/RAF1 RBD-3xFLAG (52-151) (Homo sapiens, UniProt P01116, G12D)	< 0.1 µM

Query :: For CN1CCN(c2nc(OC[C@@]34CCCN3C[C@H](F)C4)nc3c(F)c(-c4ccc(F)c5sc(N)c(C#N)c45)c(C(F)(F)F)cc23)CCC1=O , what is its reported IC50?
Result :: 0.1 to 1 µM

Query :: What about this compound? CN(c1nc(OCC23CCCN2CCC3)nc2c(F)c(-c3ccc(F)c4sc(N)nc34)c(C(F)(F)F)cc12)C1CC(O)C12CCCC2 (single isomer, unassigned) [Compound 11]
Result :: > 10 µM

Query :: What about this compound? CN(c1nc(OC[C@@]23CCCN2C[C@H](F)C3)nc2c(F)c(-c3ccc(F)c4sc(N)c(C#N)c34)c(C(F)(F)F)cc12)C1CCC(O)CC1 (stereo partly drawn) [Compound 66]
Result :: 0.1 to 1 µM

Query :: What about this compound? C[C@@H]1COC[C@H](C)N1c1nc(OC[C@@]23CCCN2C[C@H](F)C3)nc2c(F)c(-c3ccc(F)c4sc(N)c(C#N)c34)c(C(F)(F)F)cc12
Result :: 0.1 to 1 µM

Query :: What about this compound? CC(=O)N1C[C@@H](N(C)c2nc(OC[C@@]34CCCN3C[C@H](F)C4)nc3c(F)c(-c4ccc(F)c5sc(N)c(C#N)c45)c(C(F)(F)F)cc23)C[C@H]1CO
Result :: 0.1 to 1 µM

Query :: What about this compound? CN(c1nc(OC[C@@]23CCCN2C[C@H](F)C3)nc2c(F)c(-c3ccc(F)c4sc(N)c(C#N)c34)c(C(F)(F)F)cc12)[C@H]1CCS(=O)(=O)C1 (single isomer, unassigned) [Compound 220]
Result :: > 10 µM

Query :: What about this compound? CNC(=O)CN(C)c1nc(OC[C@@]23CCCN2C[C@H](F)C3)nc2c(F)c(-c3ccc(F)c4sc(N)c(C#N)c34)c(C(F)(F)F)cc12
Result :: 0.1 to 1 µM

Query :: What about this compound? CC(=O)N1CCN(c2nc(OC[C@@]34CCCN3C[C@H](F)C4)nc3c(F)c(-c4ccc(F)c5sc(N)c(C#N)c45)c(C(F)(F)F)cc23)C[C@H]1C
Result :: 0.1 to 1 µM

Query :: What about this compound? CC(=O)N1C[C@@H]2CCN(c3nc(OC[C@@]45CCCN4C[C@H](F)C5)nc4c(F)c(-c5ccc(F)c6sc(N)c(C#N)c56)c(C(F)(F)F)cc34)[C@@H]2C1
Result :: 0.1 to 1 µM

Query :: What about this compound? N#Cc1c(N)sc2c(F)ccc(-c3c(C(F)(F)F)cc4c(N5CCNC(=O)CC5)nc(OC[C@@]56CCCN5C[C@H](F)C6)nc4c3F)c12
Result :: 0.1 to 1 µM

Query :: What about this compound? CC(=O)N1CCN(c2nc(OC[C@@]34CCCN3C[C@H](F)C4)nc3c(F)c(-c4ccc(F)c5sc(N)c(C#N)c45)c(C(F)(F)F)cc23)[C@@H](C)C1
Result :: 0.1 to 1 µM
